Numbers sourced from patent US20240018502A1.

target under test: plasma purified human complement protein C3 (human) (UniProt P01024)
Sequence (P01024 23-667, chain 1 of 2): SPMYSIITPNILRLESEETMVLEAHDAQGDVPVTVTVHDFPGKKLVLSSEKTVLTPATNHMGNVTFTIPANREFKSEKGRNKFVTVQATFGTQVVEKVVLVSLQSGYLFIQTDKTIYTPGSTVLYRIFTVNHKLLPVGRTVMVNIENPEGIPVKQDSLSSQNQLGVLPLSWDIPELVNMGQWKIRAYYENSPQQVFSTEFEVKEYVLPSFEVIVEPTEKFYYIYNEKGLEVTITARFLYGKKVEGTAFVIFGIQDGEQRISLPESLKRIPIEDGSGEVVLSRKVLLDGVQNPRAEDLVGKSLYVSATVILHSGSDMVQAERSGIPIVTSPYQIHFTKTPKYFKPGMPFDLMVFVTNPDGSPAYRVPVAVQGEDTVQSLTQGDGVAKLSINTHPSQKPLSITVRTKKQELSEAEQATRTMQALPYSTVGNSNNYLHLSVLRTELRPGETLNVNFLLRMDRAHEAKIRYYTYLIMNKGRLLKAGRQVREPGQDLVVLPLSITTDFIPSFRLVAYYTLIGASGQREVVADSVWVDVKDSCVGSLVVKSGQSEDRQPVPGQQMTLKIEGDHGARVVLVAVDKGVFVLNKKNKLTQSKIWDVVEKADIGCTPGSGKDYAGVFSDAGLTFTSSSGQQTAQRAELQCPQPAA
Sequence (P01024 672-1663, chain 2 of 2): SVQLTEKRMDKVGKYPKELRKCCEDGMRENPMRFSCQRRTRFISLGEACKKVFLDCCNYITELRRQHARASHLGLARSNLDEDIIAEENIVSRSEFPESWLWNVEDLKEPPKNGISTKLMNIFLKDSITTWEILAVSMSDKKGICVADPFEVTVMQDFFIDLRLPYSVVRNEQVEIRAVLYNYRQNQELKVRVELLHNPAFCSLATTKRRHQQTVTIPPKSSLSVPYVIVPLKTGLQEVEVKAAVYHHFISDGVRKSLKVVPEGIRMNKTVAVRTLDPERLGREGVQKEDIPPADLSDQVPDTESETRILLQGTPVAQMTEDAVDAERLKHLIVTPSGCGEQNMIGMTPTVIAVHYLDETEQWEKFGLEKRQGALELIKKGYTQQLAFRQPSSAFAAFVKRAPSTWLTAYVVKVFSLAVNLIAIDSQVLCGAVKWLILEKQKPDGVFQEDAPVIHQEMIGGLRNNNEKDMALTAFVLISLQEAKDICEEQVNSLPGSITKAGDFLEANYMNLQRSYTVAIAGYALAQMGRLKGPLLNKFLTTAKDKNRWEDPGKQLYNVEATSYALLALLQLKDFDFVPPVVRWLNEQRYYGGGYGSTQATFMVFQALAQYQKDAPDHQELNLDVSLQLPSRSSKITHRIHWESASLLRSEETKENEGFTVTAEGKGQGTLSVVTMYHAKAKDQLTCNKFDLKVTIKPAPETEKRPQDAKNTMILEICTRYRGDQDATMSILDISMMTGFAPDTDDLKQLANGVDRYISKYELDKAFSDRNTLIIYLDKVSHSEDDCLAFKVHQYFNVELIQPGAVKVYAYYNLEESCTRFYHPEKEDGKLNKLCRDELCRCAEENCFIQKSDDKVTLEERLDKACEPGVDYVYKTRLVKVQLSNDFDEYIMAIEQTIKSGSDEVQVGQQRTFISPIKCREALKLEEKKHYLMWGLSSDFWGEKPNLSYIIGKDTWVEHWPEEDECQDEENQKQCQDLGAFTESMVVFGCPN
experimental protocol: cell-based or functional assay
Reported EC50 hC3 cleavage by item:
# value in nM; strip the unit string

Reference set, count: 2
MTSP-1 protease domain Q38R/I41G/Y60gG/F99M/C122S/G151N/Q192R (enzyme) VVGGTDADEGEWPWQVSLHALGRGHGCGASLISPNWLVSAAHCYIDDRGFRGSDPTQWTAFLGLHDQSQRSAPGVQERRLKRIISHPFFNDFTMDYDIALLELEKPAEYSSMVRPISLPDASHVFPAGKAIWVTGWGHTQYGGTNALILQKGEIRVINQTTCENLLPQQITPRMMCVGFLSGGVDSCRGDSGGPLSSVEADGRIFQAGVVSWGDGCAQRNKPGVYTRLPLFRDWIKENTGV: 147
MTSP-1 protease domain Q38H/I41S/D60bT/F60eS/Y60gW/D96K/F97G/F99L/C122S/G151H/Q175L/Q192D (enzyme) VVGGTDADEGEWPWQVSLHALGHGHSCGASLISPNWLVSAAHCYIDTRGSRWSDPTQWTAFLGLHDQSQRSAPGVQERRLKRIISHPFFNKGTLDYDIALLELEKPAEYSSMVRPISLPDASHVFPAGKAIWVTGWGHTQYGGTHALILQKGEIRVINQTTCENLLPQLITPRMMCVGFLSGGVDSCDGDSGGPLSSVEADGRIFQAGVVSWGDGCAQRNKPGVYTRLPLFRDWIKENTGV: 7.34

Kindly review the next binder as well.
**Query** Specify reported EC50 hC3 cleavage for the binder shown: MTSP-1 protease domain Q38H/I41S/D60bT/F60eS/Y60gW/ins97aV/F97D/T98P/C122S/G151H/Q175L/Q192E (enzyme) VVGGTDADEGEWPWQVSLHALGHGHSCGASLISPNWLVSAAHCYIDTRGSRWSDPTQWTAFLGLHDQSQRSAPGVQERRLKRIISHPFFNDDVPFDYDIALLELEKPAEYSSMVRPISLPDASHVFPAGKAIWVTGWGHTQYGGTHALILQKGEIRVINQTTCENLLPQLITPRMMCVGFLSGGVDSCEGDSGGPLSSVEADGRIFQAGVVSWGDGCAQRNKPGVYTRLPLFRDWIKENTGV
**Result** 11.5
